- Test system: PSMA-expressing LNCaP cancer xenografts
- Details: mouse, in vivo
Measured quantity: Blood: Salivary ratio
// response body must contain only the number

O=C(O)CCC[C@H](NC(=O)N[C@@H](CCCCNC(=O)[C@H](Cc1c2ccccc2cc2ccccc12)NC(=O)c1ccc(NC(=O)CN2CCN(CC(=O)O)CCN(CC(=O)O)CCN(CC(=O)O)CC2)cc1)C(=O)O)C(=O)O [68Ga-HTK04041, metal not drawn]
3.96

Ask: Quick check: Blood: Salivary ratio on PSMA-expressing LNCaP cancer xenografts, item O=C(O)CN1CCN(CC(=O)O)CCN(CC(=O)NC[C@H]2CC[C@H](C(=O)N[C@@H](Cc3c4ccccc4cc4ccccc34)C(=O)NCCCC[C@H](NC(=O)N[C@@H](C[C@H](F)C(=O)O)C(=O)O)C(=O)O)CC2)CCN(CC(=O)O)CC1 [68Ga-HTK04040, metal not drawn] ?
Reply: 0.73

Ask: Recall the recorded Blood: Salivary ratio for O=C(O)CCC[C@H](NC(=O)N[C@@H](CCCCNC(=O)[C@H](Cc1cccc(I)c1)NC(=O)[C@H]1CC[C@H](CNC(=O)CN2CCN(CC(=O)O)CCN(CC(=O)O)CCN(CC(=O)O)CC2)CC1)C(=O)O)C(=O)O [68Ga-HTK04053, metal not drawn] with PSMA-expressing LNCaP cancer xenografts and state it.
Reply: 5.19

Ask: Item: O=C(O)CCC[C@H](NC(=O)N[C@@H](CCCCNC(=O)[C@H](Cc1c2ccccc2cc2ccccc12)NC(=O)[C@H]1CC[C@H](CNC(=O)CN2CCN(CC(=O)O)CCN(CC(=O)O)CCN(CC(=O)O)CC2)CC1)C(=O)O)C(=O)O [68Ga-HTK03149, metal not drawn] Test system: PSMA-expressing LNCaP cancer xenografts Read-out: Blood: Salivary ratio Value: ?
Reply: 3.21
